# study_target: Biotinylated CoV2 Spike ECD PreS-AVI protein (SARS-CoV-2, UniProt P0DTC2 14-1208)
# assay_info: Octet binning; competitor 1A11
result_type: binning response
Give a plain numeric answer without units written out.

Completed entries (count: 3):
binder: 1E4 VHH-Fc (Fc fusion) QVLLVESGGGLVQAGGLLRLACSASGRTFTENVMGWFRQAPGKEREFVAAINWNTGSTYYSDSRKGRFTISKDNAKNTMFLQINNLKPEDTAVYYCGGTSSSYYYIGEFIPDYWGQGTQVTVSS
binning response: 0.09
--
binder: 13C8 VHH-Fc (Fc fusion) QVQLVESGGGLVQAGGSLRLSCAASGRTVNKYMTGWFRQTPGKEREFVASIDWSSTTTHYANSVKGRFTISRDKVKNTVYLQMNGLKPEDTAVYYCAAHQDSSYGYTILPIDYDSWGQGTQVTVSS
binning response: 0.11
--
binder: 3D4 VHH-Fc (Fc fusion) QVQLVESGGGLVQPGGSLRLSCAASGFTLDLNSIGWFRQAPGKEREGVSCISPSGSRMHYADSVKGRFTISRDNAKNTVYLQMNSLKPEDTAVYYCATGSPSYHYCSMYGLEYDSWGQGTQVTVPS
binning response: 0.08

Consider the additional binder presented here.
**Q:** I am curious: what binning response value has been reported for 19C10 VHH-Fc (Fc fusion) QVQLVESGGGLVQPGGSLRLSCAASGFTLDLNSIGWFRQAPGKEREGVSCISPSASSTHYADSVKGRFTISRDNAKNTVYLQMNSLKPEDTAVYYCATGTPSYHYCSMYGLEYDDWGQGTQVTVSS ?
**A:** 0.08
